# System: HCC 2998
# Protocol Notes: NCI tumour cell line growth inhibition, 48 h
The source made the active and inactive calls. Rule as the data show it: active = GI50 up to about 1.1 µM and inactive = higher.
Experimental Readout: GI50

{"columns": ["Compound", "GI50"],
 "data": [
  ["N#CC1(C#N)C(c2ccccc2)NC23CCCCC2C1(C#N)C(=O)N3 (configuration not stated)", "> 100 µM (inactive)"]
]}

Summary for this compound, `O=C(/C=C/c1ccccc1)Oc1ccc(C(=O)/C=C/c2ccccc2)cc1` : GI50 is 8.47 µM (inactive)

Summary for this compound, COc1cc(C(=O)CC2OC(=O)C(Cl)=C2Cl)ccc1Cl (configuration not stated) : GI50 is > 100 µM (inactive)

Summary for this compound, `O=C(O)c1cc(-c2ccncc2)nc2ccccc12` : GI50 is > 100 µM (inactive)

Summary for this compound, CC(C)(C)C(=O)N1C(C(=O)O)Cc2ccccc2[C@@H]1Cc1ccccc1 (some centres not stated) : GI50 is > 100 µM (inactive)

Summary for this compound, C=CCCCCNC(=O)C[C@@H]1C2=C(CC[C@H]1O[Si](C)(C)C(C)(C)C)N1C(=O)CCC/C=C\C1C2 (some centres not stated) : GI50 is 10.4 µM (inactive)

Summary for this compound, O=[N+]([O-])CC(SCc1ccccc1)c1ccc2c(c1)OCO2 (configuration not stated) : GI50 is 5.57 µM (inactive)

----------
# Test system: OVCAR-4
# Protocol Notes: NCI tumour cell line growth inhibition, 48 h
Calls of active or inactive are those of the source. Cut-off read from the data, not from the text of the source: active = GI50 up to about 1.1 µM and inactive = higher.
Experimental Readout: GI50

Summary for this compound, `CN(N=O)C(=O)ON1C(=O)CCC1=O` : GI50 is > 100 µM (inactive)

Summary for this compound, `CCCC(=O)N[C@H]1CCc2cc(OC)c(OC)c(OC)c2-c2ccc(SC)c(=O)cc21` : GI50 is 17.1 µM (inactive)

Summary for this compound, COC1C(=O)N(SC)C1c1ccccc1Cl (stereo not drawn) : GI50 is 16.7 µM (inactive)

----------
# Tested on: RXF 393
# Protocol Notes: NCI tumour cell line growth inhibition, 48 h
Activity calls are given as the source filed them. Cut-off read from the data, not from the text of the source: active = GI50 up to about 1.1 µM and inactive = higher.
Experimental Readout: GI50

Examples with answers:
{"columns": ["Smiles Notation", "GI50"],
 "data": [
  ["CC(=O)Nc1cc(CN2CCCCC2)c(O)c2ncccc12", "4.29 µM (inactive)"],
  ["C=CN1C(=O)OC[C@@H]1c1ccccc1", "> 100 µM (inactive)"]
]}

Summary for this compound, `N#CCN1CCCCCc2ccccc21` : GI50 is > 100 µM (inactive)

----------
GI50 overview
# Tested on: PC-3
# Protocol Notes: NCI tumour cell line growth inhibition, 48 h
The source made the active and inactive calls. Cut-off read from the data, not from the text of the source: active = GI50 up to about 1.1 µM and inactive = higher.

Examples with answers:
{"columns": ["Molecule", "GI50"],
 "data": [
  ["Nc1ccc(S(=O)(=O)c2ccc(NCN3C(=O)NC(=O)C(=O)C3=O)cc2)cc1", "> 100 µM (inactive)"],
  ["CC(C)=CCNc1nc(Cl)nc2[nH]cnc12", "> 100 µM (inactive)"],
  ["Cc1cc2[nH]c3c(C#N)c(-c4ccccc4)c(/C=N/c4ccc(F)cc4)c(=O)n3c2cc1C", "> 100 µM (inactive)"]
]}

`COc1cc(/C=C/C=C2\CCC/C(=C\C=C\c3ccc(O)c(OC)c3)C2=O)ccc1O` tested on PC-3 gave GI50: 6.58 µM (inactive)

`C#CCOC(=O)c1ccccc1O` tested on PC-3 gave GI50: > 100 µM (inactive)

`COc1ccc(C[C@H]2COC(=O)[C@@H]2Cc2cccc(Br)c2)cc1OC` tested on PC-3 gave GI50: 15.8 µM (inactive)

`C=C(c1ccccc1)[C@@]1(O)CC[C@@H]1N(CC#N)Cc1ccccc1` tested on PC-3 gave GI50: 22.9 µM (inactive)

`CCOC(=O)c1c(C)nc2c3ccccc3c(C#N)c(C)n12` tested on PC-3 gave GI50: > 100 µM (inactive)
